System: 786-0
PROTOCOL_NOTES: NCI 60 cell line screen (SRB), Renal Cancer
Format: cell-based
SETTINGS: 786-0 (Renal Cancer)
ASSAY_ENDPOINT: Log10TGI

Kindly note the recorded Log10TGI for COC1OC2(C)CCC3CCCC(CCOCCC4CCCC5CCC6(C)OOC45C(OC)O6)C31OO2 (centres unmarked) [Compound 6, Trioxane Ether Dimer] , which is −4.53 M

Kindly note the recorded Log10TGI for C[C@@H]1CC[C@H]2[C@@H](C)C(=O)O[C@@H]3O[C@@]4(C)CC[C@@H]1[C@]32OO4 [QHS, reference compound] , which is >−4.00 M

Kindly note the recorded Log10TGI for CC(=O)O[C@H]1C(=O)[C@@]2(C)[C@H]([C@H](OC(=O)c3ccccc3)[C@]3(O)C[C@H](OC(=O)[C@H](O)[C@@H](NC(=O)c4ccccc4)c4ccccc4)C(C)=C1C3(C)C)[C@]1(OC(C)=O)CO[C@@H]1C[C@@H]2O [Paclitaxel, paclitaxel, reference compound] , which is >−4.00 M

Kindly note the recorded Log10TGI for COC1OC2(C)CCC3CCCC(CCOC(=O)c4cccc(C(=O)OCCC5CCCC6CCC7(C)OOC56C(OC)O7)c4)C31OO2 (centres unmarked) [Compound 10, Trioxane Bis-ester Dimer] , which is >−4.30 M

Kindly note the recorded Log10TGI for COC1OC2(C)CCC3CCCC(CCOC(=O)c4ccc(C(=O)OCCC5CCCC6CCC7(C)OOC56C(OC)O7)cc4)C31OO2 (centres unmarked) [Compound 11, Bis-ester Dimer] , which is >−4.00 M

* * *

Tested on: UO-31
PROTOCOL_NOTES: NCI 60 cell line screen (SRB), Renal Cancer
Type: cell-based
SETTINGS: UO-31 (Renal Cancer)
Could you mark each record YES if its Log10GI50 falls strictly under -6 M, and NO if it equals or exceeds it?

Prompt: Dear colleague, could you confirm whether Log10GI50 of COC1OC2(C)CCC3CCCC(CCOCCC4CCCC5CCC6(C)OOC45C(OC)O6)C31OO2 (centres unmarked) falls below -6 M? Thanks.
Completion: YES

Prompt: Dear colleague, could you confirm whether Log10GI50 of COC1OC2(C)CCC3CCCC(CCOC(=O)c4ccc(C(=O)OCCC5CCCC6CCC7(C)OOC56C(OC)O7)cc4)C31OO2 (centres unmarked) falls below -6 M? Thanks.
Completion: NO

Prompt: Dear colleague, could you confirm whether Log10GI50 of C[C@@H]1CC[C@H]2[C@@H](C)C(=O)O[C@@H]3O[C@@]4(C)CC[C@@H]1[C@]32OO4 [QHS, reference compound] falls below -6 M? Thanks.
Completion: NO

* * *

System: CCRF-CEM
PROTOCOL_NOTES: NCI 60 cell line screen (SRB), Leukemia
Type: cell-based
ASSAY_ENDPOINT: Log10LC50

Observed Log10LC50, CCRF-CEM, CC(=O)O[C@H]1C(=O)[C@@]2(C)[C@H]([C@H](OC(=O)c3ccccc3)[C@]3(O)C[C@H](OC(=O)[C@H](O)[C@@H](NC(=O)c4ccccc4)c4ccccc4)C(C)=C1C3(C)C)[C@]1(OC(C)=O)CO[C@@H]1C[C@@H]2O [Paclitaxel, paclitaxel, reference compound] : >−4.00 M

Observed Log10LC50, CCRF-CEM, COC1OC2(C)CCC3CCCC(CCOC(=O)c4ccc(C(=O)OCCC5CCCC6CCC7(C)OOC56C(OC)O7)cc4)C31OO2 (stereo not shown) [Compound 11, Bis-ester Dimer] : −4.05 M

Observed Log10LC50, CCRF-CEM, COC1OC2(C)CCC3CCCC(CCOC(=O)c4cccc(C(=O)OCCC5CCCC6CCC7(C)OOC56C(OC)O7)c4)C31OO2 (stereo not shown) [Compound 10, Trioxane Bis-ester Dimer] : >−4.30 M

Observed Log10LC50, CCRF-CEM, COC1OC2(C)CCC3CCCC(CCOCCC4CCCC5CCC6(C)OOC45C(OC)O6)C31OO2 (stereo not shown) [Compound 6, Trioxane Ether Dimer] : >−4.00 M
